tgt: human PDE2A1 (Homo sapiens, UniProt O00408)
Construct: GST; purchased BPS Bioscience (San Diego, Calif.) 60020; host or cells: insect cells
Sequence (O00408 1-920 isoform O00408-2): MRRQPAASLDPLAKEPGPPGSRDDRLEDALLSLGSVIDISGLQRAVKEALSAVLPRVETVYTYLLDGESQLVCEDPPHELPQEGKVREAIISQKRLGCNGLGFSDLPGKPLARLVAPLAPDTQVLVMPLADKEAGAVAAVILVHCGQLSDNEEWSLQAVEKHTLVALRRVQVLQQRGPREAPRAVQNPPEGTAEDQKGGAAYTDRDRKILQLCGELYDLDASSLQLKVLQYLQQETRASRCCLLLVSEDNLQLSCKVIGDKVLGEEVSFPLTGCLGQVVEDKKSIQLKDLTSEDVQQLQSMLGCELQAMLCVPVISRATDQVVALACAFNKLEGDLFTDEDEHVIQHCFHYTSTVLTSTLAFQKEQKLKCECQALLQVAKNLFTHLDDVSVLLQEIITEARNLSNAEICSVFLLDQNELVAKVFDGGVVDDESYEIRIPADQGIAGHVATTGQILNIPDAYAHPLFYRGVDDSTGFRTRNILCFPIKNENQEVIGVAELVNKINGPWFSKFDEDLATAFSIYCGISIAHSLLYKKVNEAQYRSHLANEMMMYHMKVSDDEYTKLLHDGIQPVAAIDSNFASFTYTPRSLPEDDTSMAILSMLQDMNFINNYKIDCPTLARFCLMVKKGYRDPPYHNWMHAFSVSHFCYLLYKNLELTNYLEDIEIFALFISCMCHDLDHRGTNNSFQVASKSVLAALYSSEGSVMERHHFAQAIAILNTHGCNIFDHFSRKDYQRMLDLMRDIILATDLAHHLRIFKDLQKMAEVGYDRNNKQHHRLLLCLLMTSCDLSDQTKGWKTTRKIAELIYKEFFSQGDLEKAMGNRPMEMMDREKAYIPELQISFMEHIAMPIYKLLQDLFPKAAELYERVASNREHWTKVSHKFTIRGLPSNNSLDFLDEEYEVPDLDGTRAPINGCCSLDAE
experiment-summary: IMAP FP PDE assay, human PDE2A1
Type: biochemical
measurement-context: Lab B; read-out: Human PDE2 Ki (nM) Lab B
measured-metric: Ki (nM)
Report only the number, with the unit nM understood.

{"columns": ["molecule", "unit-info", "observed"],
 "data": [
  ["Cc1nc2c(c(CO)nn2C2(c3ccc(C(F)(F)F)cc3)CCC2)c(=O)[nH]1", "nM", 4.9],
  ["Cc1nc2c(c(-c3ccn[nH]3)nn2C(C)c2ccc(C(F)(F)F)cc2)c(=O)[nH]1 (single isomer, unassigned) [Example 236]", "nM", 76],
  ["CC(c1ccc(C(F)(F)F)cc1)n1nc(CO)c2c(=O)[nH]c(CC3CCCC3)nc21 (single isomer, unassigned) [Example 307]", "nM", 13],
  ["Cc1nc2c(c(CF)nn2C(c2ccc(C(F)(F)F)cc2)C(C)(C)C)c(=O)[nH]1 (single isomer, unassigned)", "nM", 11],
  ["Cc1nc2c(c(C(=O)O)nn2[C@@H](C)c2ccc(C(F)(F)F)cc2)c(=O)[nH]1", "nM", 798],
  ["Cc1nc2c(c(CO)nn2C(c2ccc(OC(F)(F)F)cc2)C2CC2)c(=O)[nH]1 (single isomer, unassigned) [Example 94]", "nM", 18]
]}

Now take the following molecule into account.
Query :: What value of Ki has been reported for the following molecule? CC(c1ccc(C(F)(F)F)cc1)n1nc(CO)c2c(=O)[nH]c(CC3CCCC3)nc21 (single isomer, unassigned) [Example 308]
Result :: 329

###

The following compounds are listed with their measured Ki values.
tgt: Rhesus PDE2A3 (Macaca mulatta, UniProt B3VTJ2)
Construct: made in house; host or cells: AD293 cells, transient transfection; supernatant of sonicated lysate
Sequence (B3VTJ2 1-941): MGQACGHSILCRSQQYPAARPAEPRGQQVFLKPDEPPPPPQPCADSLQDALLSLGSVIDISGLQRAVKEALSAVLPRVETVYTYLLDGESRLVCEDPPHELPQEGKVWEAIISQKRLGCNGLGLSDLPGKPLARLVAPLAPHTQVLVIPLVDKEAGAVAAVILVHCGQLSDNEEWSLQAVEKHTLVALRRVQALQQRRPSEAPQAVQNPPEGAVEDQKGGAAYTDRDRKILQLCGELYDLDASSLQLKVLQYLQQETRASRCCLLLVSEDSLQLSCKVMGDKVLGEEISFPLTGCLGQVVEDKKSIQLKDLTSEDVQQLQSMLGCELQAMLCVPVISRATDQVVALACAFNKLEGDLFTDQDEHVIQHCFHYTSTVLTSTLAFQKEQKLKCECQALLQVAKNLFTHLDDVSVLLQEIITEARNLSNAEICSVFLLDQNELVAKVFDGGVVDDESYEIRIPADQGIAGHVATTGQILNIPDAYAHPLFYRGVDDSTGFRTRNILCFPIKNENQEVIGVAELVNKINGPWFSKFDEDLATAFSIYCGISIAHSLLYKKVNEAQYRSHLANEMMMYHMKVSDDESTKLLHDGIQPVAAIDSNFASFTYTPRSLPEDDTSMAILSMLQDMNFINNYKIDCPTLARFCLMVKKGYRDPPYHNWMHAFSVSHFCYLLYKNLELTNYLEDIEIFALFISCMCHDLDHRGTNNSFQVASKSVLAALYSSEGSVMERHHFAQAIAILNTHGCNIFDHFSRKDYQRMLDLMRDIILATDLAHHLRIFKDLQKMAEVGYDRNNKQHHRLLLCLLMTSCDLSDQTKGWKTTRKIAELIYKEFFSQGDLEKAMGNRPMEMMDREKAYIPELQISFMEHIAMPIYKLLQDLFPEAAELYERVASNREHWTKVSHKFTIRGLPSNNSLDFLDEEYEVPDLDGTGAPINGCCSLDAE
experiment-summary: PDE2 fluorescence polarization (IMAP FP) inhibition assay, rhesus PDE2A3
Format: biochemical, rhesus macaque
measurement-context: Lab B; read-out: Rhesus PDE2 Ki (nM) Lab B
Unit nM implied. Number only.

{"columns": ["compound", "Ki [nM]"],
 "data": [
  ["Cc1nc2c(c(CF)nn2C(c2ccc(C(F)(F)F)cc2)C(C)(C)C)c(=O)[nH]1 (single isomer, unassigned) [Example 234]", 15]
]}

Query :: So what does the record say about Ki for Cc1nn(C(C)c2ccc(C(F)(F)F)cc2)c2nc(Cc3ccccc3O)[nH]c(=O)c12 (stereo not drawn) ?
Result :: 128

Query :: Try this compound next: Cc1nc2c(c(CO)nn2C(c2ccc(C(F)(F)F)cc2)C2CC2)c(=O)[nH]1 (stereo not drawn)
Result :: 2.2

Query :: Try this compound too: Cc1nc2c(c(C(F)F)nn2C(C)c2ccc(C(F)(F)F)cc2)c(=O)[nH]1 (single isomer, unassigned) [Example 175]
Result :: 419

Query :: Repeat with Cc1nc2c(c(CCl)nn2C(c2ccc(C(F)(F)F)cc2)C2CC2)c(=O)[nH]1 (stereo not drawn)
Result :: 0.85

Query :: Here is the next compound: Cc1nc2c(c(CF)nn2C(C)c2ccc(OC(F)(F)F)c(F)c2)c(=O)[nH]1 (single isomer, unassigned) [Example 217]
Result :: 0.53

The reported numbers originate from patent US10160762B2.
